# System: E. coli ATCC 25922
# protocolDescription: Antibiotic interaction assay (Wimley), 2/3 broth microdilution: MIC alone, MIC of combination, FICI
# Assay type: cell-based
# testContext: labelled drug + KL-L9P

{"columns": ["compound", "FICIantibiotic"],
 "data": [
  ["CC(=O)NC[C@H]1CN(c2ccc(N3CCOCC3)c(F)c2)C(=O)O1 [linezolid]", 0.22],
  ["CC(=O)Oc1ccccc1C(=O)O [aspirin]", 0.92],
  ["Cc1onc(-c2ccccc2Cl)c1C(=O)N[C@@H]1C(=O)N2[C@@H]1SC(C)(C)[C@@H]2C(=O)O [cloxacillin]", 0.24]
]}
